Test System: Pro-neuregulin-1, membrane-bound isoform (Homo sapiens)
Measurement Protocol: NRG1 binders on small-molecule microarrays, primary screen, psychiatric disease protein project, biochemical, small-molecule microarray, fluorescence 635/667 (AID 1075);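 note: score combines 667 nm spot fluorescence with signal to noise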
Conditions Used: NRG1 binding, 635 nm fluorescence, higher = more signal
# composite z-score per record follows
Quantity Kind: composite z-score

Molecule	Result
C[C@H]1NC(=O)[C@H](Cc2ccccc2)NC(=O)[C@@]23C(=O)N[C@@H](Cc4ccccc4)C2[C@H](C)[C@@]2(C)O[C@H]2C3/C=C/C/C=C\CNC1=O (some centres not stated)	-0.547
CC1CC/C=C\[C@H]2OC34C=CCN(Cc5ccccc5)C(=O)[C@H]3N(CCCCCO)C(=O)[C@@H]4C2C(=O)O1 (some centres not stated)	-0.68
COc1ccc([Si](C)(C)[C@@H]2[C@@H](CCn3cc([C@H](O)c4ccccc4)nn3)O[C@]3(C(=O)N(Cc4cccc(N5CCOC5=O)c4)c4ccccc43)[C@H]2C)cc1	0.0895
COC(=O)C(CC#Cc1ccc2c(c1)[C@]1(C(=O)N2)[C@H](c2ccc(OCCO)cc2)N2[C@H](c3ccccc3)[C@H](c3ccccc3)OC(=O)[C@H]2[C@@H]1C(=O)NC[C@H](O)c1ccccc1)C(=O)OC	1.29
O=C1C2C=CC(C(O)c3ccc(F)cc3)N(Nc3ccccc3)C2C(=O)N1c1ccccc1 (configuration not stated)	0.828
C=CC[C@@]1(C(=O)NCC(O)CO)N=C(c2ccc(OCCCO)cc2)O[C@@H]1c1ccccc1N=[N+]=[N-] (some centres not stated)	1.71
COCC(=C=CC[C@@H](O)c1ccc(CO)o1)CCO	0.178

----------
Measurement Protocol: small-molecule microarray binders of probe aEGFR, primary screen, biochemical, biotinylated probe, 635/667 nm fluorescence (AID 1097);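 note: probe is a biotinylated anti-EGFR antibody binding compounds printed on slides; score combines fluorescence near 667 nm and signal to noise of each spot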
Conditions Used: higher = more signal
Quick list: composite z-score per entry.

Compound	composite z-score
COCCOC(=O)N1C(=O)[C@@]2(c3cc(C#CCC(C(=O)OC)C(=O)OC)ccc31)[C@H](c1ccccc1OCCO)N1[C@H](c3ccccc3)[C@H](c3ccccc3)OC(=O)[C@H]1[C@@H]2C(N)=O	-0.0346
O=C1O[C@@H](c2ccccc2)[C@@H](c2ccccc2)N2[C@@H](c3ccc(O)cc3)[C@]3(C(=O)Nc4ccc(C#CC5(O)CCCCCC5)cc43)[C@@H](C(=O)N3CCCCCCC3)[C@H]12	1.24
COCCOC(=O)N1C(=O)[C@@]2(c3cc(C#CC4=CCCCC4)ccc31)[C@H](C(=O)N1CCc3cc(OC)c(OC)cc3C1)[C@H]1C(=O)O[C@H](c3ccccc3)[C@H](c3ccccc3)N1[C@@H]2c1ccccc1OCCO	0.0238
CCCCCN1CC=CC23O[C@@H]4C=CCOC(=O)[C@@H]4[C@H]2C(=O)N(CCCO)[C@@H]3C1=O (stereo partly drawn)	-0.185
[N-]=[N+]=Nc1ccccc1[C@H]1OC(c2ccc(OCCCO)cc2)=N[C@@]1(CCS(=O)(=O)c1ccccc1)C(=O)O	-0.179
[N-]=[N+]=NCc1ccccc1[C@H]1OC(c2ccc(OCCCO)cc2)=N[C@@]1(CCS(=O)(=O)c1ccccc1)C(=O)N1CCOCC1	0.302
CN(C)C(=O)[C@@]1(CCC(=O)OC(C)(C)C)N=C(c2ccc(OCCCO)cc2)O[C@H]1c1ccccc1	0.0197
COCCOC(=O)N1C(=O)[C@@]2(c3cc(C#CCNC(N)=O)ccc31)[C@H](c1ccc(OCCO)cc1)N1[C@H](c3ccccc3)[C@H](c3ccccc3)OC(=O)[C@H]1[C@@H]2C(=O)N1CCc2cc(OC)c(OC)cc2C1	-0.0007
C[N+](C)(C)CCCCCCNC(=O)[C@H]1C[C@H]2C(=O)N3CCC[C@H]3C(=O)N2[C@H]1c1ccc(O)cc1	-0.36
CC(=O)NCCCC[C@@H]1NC(=O)[C@@H]2C[C@H](C(=O)NCCCCN(C)C)[C@H](c3ccc(O)cc3)N2C1=O	-0.109
N#Cc1ccc(NN2C(C(O)c3ccc([N+](=O)[O-])cc3)C=CC3C(=O)N(c4ccccc4)C(=O)C32)cc1 (stereo not drawn)	0.0478
O=C1OCC=C[C@H]2OC34C=CCN(c5ccc6ccccc6c5)C(=O)[C@H]3N(CCCO)C(=O)[C@@H]4[C@@H]12 (stereo partly drawn)	-0.186
CCCCCN1CC=CC23O[C@@H]4/C=C\CCCOC(=O)C4[C@H]2C(=O)N(CCCCCCO)[C@@H]3C1=O (stereo partly drawn)	0.0538

----------
Measurement Protocol: small-molecule microarray binders of probe aDKK1, primary screen, biochemical, biotinylated probe, 635/667 nm fluorescence (AID 1099);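 note: score merges 667nm spot fluorescence with signal to noise across triplicate slides; reference of the scale not given here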
Conditions Used: higher = more signal

Molecule	composite z-score
COCC(=C=CC[C@@H](O)c1ccc(CO)o1)CCO	-0.239
COCCOC(=O)N1C(=O)[C@@]2(c3cc(C#CCC(C(=O)OC)C(=O)OC)ccc31)[C@H](C(=O)N1CCCCCCC1)[C@H]1C(=O)O[C@H](c3ccccc3)[C@H](c3ccccc3)N1[C@@H]2c1ccc(OCCO)cc1	2.72
O=C/C=C/c1ccc(Cl)cc1	-0.235
CC(=O)C1=CCC(c2ccccc2)N(S(=O)(=O)c2ccc(C)cc2)C1 (stereo not given)	0.196
C[C@]1(C(=O)NCc2ccccc2)c2ccccc2C(=O)N(Cc2cc(F)cc(C(F)(F)F)c2)[C@H]1c1ccc(CO)cc1	0.214

----------
Test System: Neurogenic locus notch homolog protein 3 (Homo sapiens) (UniProt Q9UM47)
Sequence (Q9UM47 whole entry, looked up): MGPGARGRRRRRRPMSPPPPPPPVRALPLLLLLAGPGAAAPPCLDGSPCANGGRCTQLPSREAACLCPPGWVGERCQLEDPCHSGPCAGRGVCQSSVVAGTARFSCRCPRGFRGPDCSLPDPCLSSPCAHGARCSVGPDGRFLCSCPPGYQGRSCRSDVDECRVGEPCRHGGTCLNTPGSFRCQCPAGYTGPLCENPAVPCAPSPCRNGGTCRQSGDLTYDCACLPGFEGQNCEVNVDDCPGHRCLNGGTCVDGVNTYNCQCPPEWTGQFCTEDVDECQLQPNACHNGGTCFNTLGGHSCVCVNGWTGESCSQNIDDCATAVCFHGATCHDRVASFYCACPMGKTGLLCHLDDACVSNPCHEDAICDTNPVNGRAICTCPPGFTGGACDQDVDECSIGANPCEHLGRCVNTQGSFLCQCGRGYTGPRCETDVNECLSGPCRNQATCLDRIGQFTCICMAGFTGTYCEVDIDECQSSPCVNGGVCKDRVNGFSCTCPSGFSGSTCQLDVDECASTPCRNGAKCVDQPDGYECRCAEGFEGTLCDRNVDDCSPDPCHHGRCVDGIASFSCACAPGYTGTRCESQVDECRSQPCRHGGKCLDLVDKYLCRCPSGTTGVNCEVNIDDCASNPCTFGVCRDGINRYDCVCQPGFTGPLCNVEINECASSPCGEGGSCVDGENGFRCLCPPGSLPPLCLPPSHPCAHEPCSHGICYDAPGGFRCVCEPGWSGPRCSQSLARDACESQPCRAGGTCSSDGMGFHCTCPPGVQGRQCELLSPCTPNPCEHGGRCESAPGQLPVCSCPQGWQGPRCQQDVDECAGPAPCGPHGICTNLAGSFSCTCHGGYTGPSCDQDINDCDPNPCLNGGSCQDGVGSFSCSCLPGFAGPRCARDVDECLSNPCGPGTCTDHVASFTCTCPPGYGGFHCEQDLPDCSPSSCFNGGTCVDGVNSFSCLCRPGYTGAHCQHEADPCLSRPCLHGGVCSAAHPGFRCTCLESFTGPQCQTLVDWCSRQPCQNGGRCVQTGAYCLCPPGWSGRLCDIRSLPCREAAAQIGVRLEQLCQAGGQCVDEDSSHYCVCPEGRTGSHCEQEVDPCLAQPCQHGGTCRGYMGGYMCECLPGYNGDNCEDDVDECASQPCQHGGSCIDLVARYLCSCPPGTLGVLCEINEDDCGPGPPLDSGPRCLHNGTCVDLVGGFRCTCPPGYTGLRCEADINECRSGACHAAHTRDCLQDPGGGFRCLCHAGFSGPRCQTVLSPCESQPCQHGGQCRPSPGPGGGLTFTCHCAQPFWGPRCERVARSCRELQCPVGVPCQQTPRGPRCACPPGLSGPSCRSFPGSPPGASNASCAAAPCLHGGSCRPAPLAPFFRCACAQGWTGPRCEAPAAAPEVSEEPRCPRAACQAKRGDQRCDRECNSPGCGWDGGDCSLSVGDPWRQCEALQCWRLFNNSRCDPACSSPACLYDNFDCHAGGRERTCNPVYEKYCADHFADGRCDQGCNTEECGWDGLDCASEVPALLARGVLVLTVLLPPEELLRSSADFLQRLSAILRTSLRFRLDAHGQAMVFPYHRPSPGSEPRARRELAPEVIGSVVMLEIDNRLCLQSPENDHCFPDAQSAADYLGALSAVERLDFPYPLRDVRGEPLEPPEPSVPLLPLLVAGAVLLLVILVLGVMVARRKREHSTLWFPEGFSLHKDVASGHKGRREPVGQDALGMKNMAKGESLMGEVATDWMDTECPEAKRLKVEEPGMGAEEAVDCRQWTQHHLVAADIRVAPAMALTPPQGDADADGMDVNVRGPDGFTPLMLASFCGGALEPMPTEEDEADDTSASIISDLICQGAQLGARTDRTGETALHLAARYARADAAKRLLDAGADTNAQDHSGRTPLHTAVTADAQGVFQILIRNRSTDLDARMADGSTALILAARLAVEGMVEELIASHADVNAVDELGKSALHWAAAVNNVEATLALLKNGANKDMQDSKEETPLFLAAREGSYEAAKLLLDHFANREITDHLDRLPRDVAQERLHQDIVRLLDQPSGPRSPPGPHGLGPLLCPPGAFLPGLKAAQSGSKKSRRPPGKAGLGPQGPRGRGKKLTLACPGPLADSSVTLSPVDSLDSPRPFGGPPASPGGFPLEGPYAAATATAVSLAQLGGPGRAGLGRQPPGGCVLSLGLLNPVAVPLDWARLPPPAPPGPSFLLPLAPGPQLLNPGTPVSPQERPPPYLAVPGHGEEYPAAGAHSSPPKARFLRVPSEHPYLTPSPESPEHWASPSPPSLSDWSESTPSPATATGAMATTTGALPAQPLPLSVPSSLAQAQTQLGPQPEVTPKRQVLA
Measurement Protocol: NOTCH3 binders on small-molecule microarray, primary screen, biochemical, 635/667 nm fluorescence (AID 1096)
Conditions Used: NOTCH3 binding, 635 nm fluorescence, higher = more signal
Attribute: composite z-score
Quantity Kind: composite z-score

Structure	Test System	Result
CCCN1C(=O)[C@]2(COC(c3ccc(OCCCO)cc3)=N2)Cc2ccccc21	Neurogenic locus notch homolog protein 3 (Homo sapiens) (UniProt Q9UM47)	0.112
O=C(O)[C@@]1(Cc2ccccc2)N=C(c2ccc(OCCCO)cc2)O[C@H]1c1ccccc1	Neurogenic locus notch homolog protein 3 (Homo sapiens) (UniProt Q9UM47)	0.793
C=C(C(=O)CC[C@H](OC(C)=O)c1ccc(OCCO)cc1)C(C)C	Neurogenic locus notch homolog protein 3 (Homo sapiens) (UniProt Q9UM47)	0.801
COc1ccc(CCN2C(=O)[C@@]3(Cc4ccccc42)c2ccccc2C(=O)N(Cc2ccccc2Cl)[C@H]3c2ccc(CO)cc2)cc1	Neurogenic locus notch homolog protein 3 (Homo sapiens) (UniProt Q9UM47)	-0.981
CO[C@H]1O[C@H](CO)[C@@H](OC(=O)Nc2ccc3c(c2)OCO3)[C@H](OC(=O)Nc2ccccc2)[C@H]1OC(=O)Nc1ccccc1	Neurogenic locus notch homolog protein 3 (Homo sapiens) (UniProt Q9UM47)	1.15
NC(=O)NCC#Cc1ccc2c(c1)[C@]1(C(=O)N2)[C@H](C(=O)NC[C@H](O)c2ccccc2)[C@H]2C(=O)O[C@H](c3ccccc3)[C@H](c3ccccc3)N2[C@@H]1c1ccc(O)cc1	Neurogenic locus notch homolog protein 3 (Homo sapiens) (UniProt Q9UM47)	1.13
COc1ccc(CCNC(=O)[C@@]2(Sc3ccc(C)cc3)CC(=O)N(Cc3ccccc3Cl)[C@@H]2c2ccc(CO)cc2I)cc1	Neurogenic locus notch homolog protein 3 (Homo sapiens) (UniProt Q9UM47)	-0.788

----------
Measurement Protocol: HepG2 liver cancer cell viability effects, profiling panel, resazurin fluorescence, 24 h, PK04 Diversity Set (AID 1172); note: test concentration not given here
Conditions Used: higher = more signal

Molecule	z-score
COc1ccc(CCNC(=O)[C@@H]2c3ccccc3C(=O)N(Cc3ccc(OC(F)(F)F)cc3)[C@H]2c2ccc(CO)cc2)cc1	0.697
CC(C)N1C(=O)[C@@]2(c3ccc([N+](=O)[O-])cc3)CC(=O)N(CC34CC5CC(CC(C5)C3)C4)[C@@H]2c2ccc(CO)cc21	-0.0685
COc1ccc(C(O)C2C=CC3C(=O)N(c4ccccc4)C(=O)C3N2Nc2ccc([N+](=O)[O-])cc2)cc1OCc1ccccc1 (stereo not given)	-0.46
[N-]=[N+]=NCc1ccccc1[C@H]1OC(c2ccc(OCCCO)cc2)=N[C@@]1(CCS(=O)(=O)c1ccccc1)C(=O)N1CCOCC1	-0.0894
COc1ccc([Si](C)(C)[C@H]2[C@H](CC(=O)N(CCO)Cc3ccccc3)O[C@@]3(C(=O)N(Cc4cccc(N5CCC5=O)c4)c4ccccc43)[C@@H]2C)cc1	-0.412
[N-]=[N+]=NCc1ccccc1C[C@]1(C(=O)NCC(O)CO)N=C(c2ccc(OCCCO)cc2)O[C@H]1c1ccccc1N=[N+]=[N-] (stereo not given in full)	0.207
N#Cc1ccc(NN2C(C(O)c3ccc([N+](=O)[O-])cc3)C=CC3C(=O)N(c4ccccc4)C(=O)C32)cc1 (stereo not given)	-1.07
O=C1O[C@H](c2ccccc2)[C@H](c2ccccc2)N2[C@H]1[C@@H](C(=O)O)[C@]1(C(=O)Nc3ccc(C#CC4=CCCCC4)cc31)[C@H]2c1ccc(OCCO)cc1	0.732
C=C(COC)C(=O)CC[C@H](OC(C)=O)c1cccc(OCCO)c1	-1.32
CC1=C2[C@@H](CCc3ccccc3)OB(O)C[C@@H]2n2c(=O)n(-c3ccccc3)c(=O)n2C1	-0.32
C=CCNC(=O)[C@@H]1[C@H]2C(=O)O[C@H](c3ccccc3)[C@H](c3ccccc3)N2[C@H](c2ccc(OCCO)cc2)[C@@]12C(=O)Nc1ccccc12	0.61
C=CCC(OC(C)=O)[C@@H]1[C@@H](N(Cc2ccc(-c3ccccc3)cc2)C(=O)Cc2ccc(OC)cc2)c2cc(OCCCO)ccc2N1C(=O)c1ccc2ccccc2n1 (stereo not given in full)	0.0252
[N-]=[N+]=NCc1ccccc1C[C@@]1(C(=O)N2CCOCC2)N=C(c2ccc(OCCCO)cc2)O[C@@H]1c1ccccc1CN=[N+]=[N-]	-0.638
CCOC(=O)C1=CC[C@@H](c2ccccc2)N(S(=O)(=O)c2ccc(C)cc2)[C@H]1C(=O)OCC	-0.0229
C=C(C(=O)CC[C@H](OC(C)=O)c1ccc(OCCO)cc1)C(C)C	0.163
